Where these numbers come from: patent US9018209B2

- System: IIIB strain of HIV-1
- Method: Anti-HIV-1 activity: protection of infected MT-2 cells, MTT colorimetric method
- Format: cell-based
- Measurement conditions: Human immunodeficiency virus 1, IIIB, MT2
Readout kind: EC50
Please append the unit to your numeric answer.

Compound | EC50
COc1ccc(Nc2nc(CO)cs2)cc1OCC=C(C)C [Compound 10c] | 9 µM

# evaluate next
Task: Which EC50 value belongs to CC(C)=CCOc1cc(Nc2nc(CO)cs2)ccc1C [Compound 10b] ?
Result: 13 µM

* * *

Reported pIC50 by item:
- Test system: MT-2 human T-cells
- Method: Cytotoxicity: inhibition of MT-2 cell growth
- Format: cell-based
- Measurement conditions: Homo sapiens, MT2, Table 1a; cytotoxicity, MT-2 cells; read-out: IC50
The meaning of pIC50 here: minus log10 of the concentration in molar units.

Some entries whose results are on file:
Compound | pIC50
COc1ccnc(Nc2ccc(Cl)c(OCC=C(C)C)c2)n1 [Compound 42d] | 5.05
CC(C)=CCOc1cc(Nc2ncccn2)ccc1Cl [Compound 39d] | 5.60
CC(C)=CCOc1cc(Nc2ccnc(N)n2)ccc1Cl [Compound 45d] | 5.70
Cc1nccc(C(F)(F)F)n1 | 5.60
CC(C)=CCOc1cc(Nc2ccccn2)ccc1C [Compound 30b] | 4.46

Task: Which pIC50 value belongs to COc1ccnc(Nc2ccc(C)c(OCC=C(C)C)c2)n1 [Compound 42b] ?
Result: 4.39

Task: Which pIC50 value belongs to CC(C)=CCOc1cc(Nc2ncccn2)ccc1C [Compound 39b] ?
Result: 4.11

* * *

Reported IC50 by item:
- Test system: MT-2 human T-cells
- Method: Cytotoxicity: inhibition of MT-2 cell growth
- Assay type: cell-based
- Measurement conditions: Homo sapiens, MT2, Table 1a; cytotoxicity, MT-2 cells; read-out: IC50

Compound | IC50
Cc1ccnc2c1NC(=O)c1cccnc1N2C1CC1 [Nevirapine, nevirapine, reference compound] | > 10000 nM
CC(C)=CCOc1cc(Nc2ncccn2)ccc1C#N [Compound 39h] | < 200 nM

# evaluate next
Task: Which IC50 value belongs to CC(C)=CCOc1cc(Nc2nccc(N)n2)ccc1Cl [Compound 40d] ?
Result: > 1000 nM
